tested on: Alternaria solani; assay: In vivo preventive test on Alternaria solani (tomato); conditions: 500 ppm of active ingredient, evaluated 7 days after inoculation
outcome.measure: Efficacy (%)
Response body: numeric value in %, unit text excluded.

# input For COCCCC1CCCCN1C(=O)c1c(C(F)F)nn(C)c1F (stereo not shown) [Example 47] , write its Efficacy.
# output 89

# input For Cn1nc(C(F)F)c(C(=O)N2CCCCC2CCOCC2CCC2)c1F (stereo not shown) [Example 37] , write its Efficacy.
# output 94

# input For COCCCOCCC1CCCCN1C(=O)c1c(C(F)F)nn(C)c1F (stereo not shown) [Example 40] , write its Efficacy.
# output 94

# input For Cn1nc(C(F)F)c(C(=O)N2CCCC2C23CC4CC(CC(C4)C2)C3)c1Cl (stereo not shown) [Example 13] , write its Efficacy.
# output 94

# input For CCCCOCCC1CCCCN1C(=O)c1cn(C)nc1C(F)F (stereo not shown) [Example 30] , write its Efficacy.
# output 89

# input For Cn1nc(C(F)F)c(C(=O)N2CCCC2C2CCCCC2)c1Cl (stereo not shown) [Example 10] , write its Efficacy.
# output 94

# input For CCCCCCC1CCCCN1C(=O)c1cn(C)nc1C(F)F (stereo not shown) [Example 20] , write its Efficacy.
# output 100
